Known inhibition of a selection of molecules
Molecular target: Tyrosine-protein kinase JAK2 (Homo sapiens) (UniProt O60674)
Sequence (O60674 whole entry): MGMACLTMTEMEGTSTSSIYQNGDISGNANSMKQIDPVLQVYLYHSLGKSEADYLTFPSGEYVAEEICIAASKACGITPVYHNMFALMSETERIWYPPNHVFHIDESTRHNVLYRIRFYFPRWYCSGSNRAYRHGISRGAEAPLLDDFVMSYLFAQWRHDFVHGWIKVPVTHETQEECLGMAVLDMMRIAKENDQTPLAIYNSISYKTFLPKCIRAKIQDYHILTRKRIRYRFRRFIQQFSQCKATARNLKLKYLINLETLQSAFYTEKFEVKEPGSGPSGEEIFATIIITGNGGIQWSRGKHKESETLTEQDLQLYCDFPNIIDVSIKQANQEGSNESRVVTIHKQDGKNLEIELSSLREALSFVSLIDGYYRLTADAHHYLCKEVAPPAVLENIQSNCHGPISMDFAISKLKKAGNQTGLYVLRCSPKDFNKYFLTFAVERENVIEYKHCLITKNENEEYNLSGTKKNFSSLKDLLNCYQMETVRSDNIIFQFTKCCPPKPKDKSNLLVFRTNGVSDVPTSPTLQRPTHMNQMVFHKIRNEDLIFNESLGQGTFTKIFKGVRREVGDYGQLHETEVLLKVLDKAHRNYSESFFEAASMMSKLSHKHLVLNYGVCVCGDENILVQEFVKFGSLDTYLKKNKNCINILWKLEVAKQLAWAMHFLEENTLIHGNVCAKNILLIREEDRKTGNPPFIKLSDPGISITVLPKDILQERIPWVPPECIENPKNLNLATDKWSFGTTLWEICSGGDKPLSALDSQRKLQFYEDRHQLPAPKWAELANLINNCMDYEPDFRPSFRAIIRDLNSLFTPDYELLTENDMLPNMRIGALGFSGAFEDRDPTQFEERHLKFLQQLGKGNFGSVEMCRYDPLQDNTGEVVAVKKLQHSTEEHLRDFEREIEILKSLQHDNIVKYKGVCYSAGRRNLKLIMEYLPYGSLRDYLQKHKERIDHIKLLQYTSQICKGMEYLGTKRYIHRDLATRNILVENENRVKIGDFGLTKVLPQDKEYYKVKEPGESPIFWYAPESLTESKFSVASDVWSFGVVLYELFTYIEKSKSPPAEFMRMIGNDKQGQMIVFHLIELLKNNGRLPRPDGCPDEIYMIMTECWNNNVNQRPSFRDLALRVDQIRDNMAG
Test: Inhibition of JAK2 (unknown origin) at 1 uM
Number only, in %; omit the unit.

Examples from the recorded data:
- Nc1ncnc2c1sc1cc(-c3cccc(C(=O)NCCc4cccnc4)c3)ccc12: 98
- CN1CCN(C(=O)Nc2cccc(-c3ccc4c(c3)sc3c(N)ncnc34)c2)CC1: 88

Ask: Dear colleague, I am looking for the recorded inhibition of the following molecule: Nc1ncnc2c1sc1cc(-c3cccc(NC(=O)N4CCCC4)c3)ccc12
Reply: 95

Ask: Dear colleague, I am looking for the recorded inhibition of the following molecule: Nc1ncnc2c1sc1cc(-c3cccc(C(=O)NCC(=O)N4CCOCC4)c3)ccc12
Reply: 97

----------
Known IC50 of a selection of molecules
Biological target: LIM domain kinase 1 (Homo sapiens)
Assay: Inhibition of LIMK1-catalyzed cofilin phosphorylation in human ZR-75-1 cells
Format: cell-based
Number only, in nM; omit the unit.

Examples from the recorded data:
- Nc1ncnc2c1sc1cc(-c3cccc(C(=O)NCC(=O)N4CCOCC4)c3)ccc12: 1400
- CN1CCN(C(=O)Nc2cccc(-c3ccc4c(c3)sc3c(N)ncnc34)c2)CC1: 1600
- Nc1ncnc2c1sc1cc(-c3cccc(NC(=O)N4CCCC4)c3)ccc12: 2400

Ask: Dear colleague, I am looking for the recorded IC50 of the following molecule: Nc1ncnc2c1sc1cc(-c3cccc(C(=O)NCCc4cccnc4)c3)ccc12
Reply: 4100

----------
Test: In vitro intrinsic clearance in human liver microsomes at 1 uM by LC-MS analysis
Assay type: ADME
Conditions: read-out: CLH
READOUT_NAME: microsomal CLint at 1 µM (µL/min/mg)
Number only, in µL/min/mg; omit the unit.

- Nc1ncnc2c1sc1cc(-c3cccc(C(=O)NCCc4cccnc4)c3)ccc12: 116
- Nc1ncnc2c1sc1cc(-c3cccc(C(=O)NCC(=O)N4CCOCC4)c3)ccc12: 68

Ask: Dear colleague, I am looking for the recorded microsomal CLint at 1 µM of the following compound: Nc1ncnc2c1sc1cc(-c3cccc(NC(=O)N4CCCC4)c3)ccc12
Reply: 77

----------
Target: LIM domain kinase 1 (Homo sapiens)
Test: Inhibition of LIMK1 (unknown origin) assessed as remaining ATP level using cofilin-2 protein as substrate measured after 60 mins incubation with enzyme by KinaseGlo assay
READOUT_NAME: IC50 (µM)
Number only, in µM; omit the unit.

Examples from the recorded data:
• Nc1cccc(-c2ccc3c(c2)sc2c(N)ncnc23)c1 = 0.231
• N#Cc1ccc(-c2ccc3c(c2)sc2c(N)ncnc23)cc1 = 0.828

Lab note: next compound to report on.
Ask: Dear colleague, I am looking for the recorded IC50 of the following compound: CS(=O)(=O)Nc1ccc(-c2ccc3c(c2)sc2c(N)ncnc23)cc1
Reply: 0.243

----------
Biological target: CYP1A2 (Homo sapiens)
Sequence (P05177 whole entry): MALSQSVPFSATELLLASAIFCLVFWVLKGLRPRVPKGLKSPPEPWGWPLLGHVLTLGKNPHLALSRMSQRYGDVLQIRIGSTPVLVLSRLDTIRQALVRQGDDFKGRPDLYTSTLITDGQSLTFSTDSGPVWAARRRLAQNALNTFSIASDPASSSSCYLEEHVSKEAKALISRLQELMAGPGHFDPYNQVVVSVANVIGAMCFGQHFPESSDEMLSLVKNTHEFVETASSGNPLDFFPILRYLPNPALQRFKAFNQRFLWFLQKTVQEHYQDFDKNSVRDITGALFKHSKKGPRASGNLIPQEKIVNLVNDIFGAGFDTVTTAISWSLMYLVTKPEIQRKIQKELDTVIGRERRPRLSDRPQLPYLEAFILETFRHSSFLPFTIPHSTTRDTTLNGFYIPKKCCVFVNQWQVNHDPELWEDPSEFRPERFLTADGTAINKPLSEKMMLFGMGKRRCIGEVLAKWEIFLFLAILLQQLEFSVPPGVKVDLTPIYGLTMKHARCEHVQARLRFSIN
Test: Inhibition of CYP1A2 in human liver microsomes assessed as reduction in apparent rate of formation of metabolites using phenacetin as substrate at 20 uM by LC-MS analysis
Format: ADME
Settings: probe phenacetin
Known inhibition at 20 µM of a selection of molecules
Could you kindly put the unit after your number?

• CN1CCN(C(=O)Nc2cccc(-c3ccc4c(c3)sc3c(N)ncnc34)c2)CC1 = 11%
• Nc1ncnc2c1sc1cc(-c3cccc(NC(=O)N4CCCC4)c3)ccc12 = 28%
• Nc1ncnc2c1sc1cc(-c3cccc(C(=O)NCC(=O)N4CCOCC4)c3)ccc12 = 17%

Ask: Dear colleague, I am looking for the recorded inhibition at 20 µM of the following molecule: Nc1ncnc2c1sc1cc(-c3cccc(C(=O)NCCc4cccnc4)c3)ccc12
Reply: 13%

----------
Test: Solubility of the compound in phosphate buffer at pH 6.5 by nephelometry
Format: physicochemical
Known solubility kinetic of a selection of compounds

• Nc1ncnc2c1sc1cc(-c3cccc(C(=O)NCC(=O)N4CCOCC4)c3)ccc12 = 6.3 µg/mL

Ask: Dear colleague, I am looking for the recorded solubility kinetic of the following compound: Nc1ncnc2c1sc1cc(-c3cccc(-c4nn[nH]n4)c3)ccc12
Reply: 6.3 µg/mL

Ask: Dear colleague, I am looking for the recorded solubility kinetic of the following compound: CCNC(=O)Nc1cccc(-c2ccc3c(c2)sc2c(N)ncnc23)c1
Reply: 1.6 µg/mL

Ask: Dear colleague, I am looking for the recorded solubility kinetic of the following compound: Nc1ncnc2c1sc1cc(-c3cccc(C(=O)NCCc4cccnc4)c3)ccc12
Reply: < 1.6 µg/mL

----------
Known microsomal CLint at 1 µM of a selection of compounds
Test: In vitro intrinsic clearance in mouse liver microsomes at 1 uM by LC-MS analysis
Type: ADME
Conditions: read-out: CLH
Number only, in µL/min/mg; omit the unit.

Ask: Dear colleague, I am looking for the recorded microsomal CLint at 1 µM of the following compound: CN1CCN(C(=O)Nc2cccc(-c3ccc4c(c3)sc3c(N)ncnc34)c2)CC1
Reply: 27

Ask: Dear colleague, I am looking for the recorded microsomal CLint at 1 µM of the following compound: NC(=O)c1cccc(-c2ccc3c(c2)sc2c(N)ncnc23)c1
Reply: 26

----------
Target: Serine/threonine-protein kinase PAK 1 (Homo sapiens)
Assay: Inhibition of PAK1 (unknown origin) at 1 uM
Known inhibition of a selection of molecules
Number only, in %; omit the unit.

Examples from the recorded data:
- Nc1ncnc2c1sc1cc(-c3cccc(C(=O)NCCc4cccnc4)c3)ccc12: 8
- Nc1ncnc2c1sc1cc(-c3cccc(NC(=O)N4CCCC4)c3)ccc12: 0
- CN1CCN(C(=O)Nc2cccc(-c3ccc4c(c3)sc3c(N)ncnc34)c2)CC1: 33

Ask: Please state recorded inhibition (tested on Serine/threonine-protein kinase PAK 1 (Homo sapiens)) of Nc1ncnc2c1sc1cc(-c3cccc(C(=O)NCC(=O)N4CCOCC4)c3)ccc12
Reply: 23

----------
Known inhibition of a selection of compounds
Target: Rho-associated protein kinase 2 (Homo sapiens)
Experiment: Inhibition of ROCK2 (unknown origin) at 1 uM
Number only, in %; omit the unit.

Examples from the recorded data:
- CN1CCN(C(=O)Nc2cccc(-c3ccc4c(c3)sc3c(N)ncnc34)c2)CC1: 24
- Nc1ncnc2c1sc1cc(-c3cccc(NC(=O)N4CCCC4)c3)ccc12: 10
- Nc1ncnc2c1sc1cc(-c3cccc(C(=O)NCCc4cccnc4)c3)ccc12: 13

Ask: Dear colleague, I am looking for the recorded inhibition of the following compound: Nc1ncnc2c1sc1cc(-c3cccc(C(=O)NCC(=O)N4CCOCC4)c3)ccc12
Reply: 18

----------
Molecular target: LIM domain kinase 1 (Homo sapiens, UniProt P53667)
Sequence (P53667 whole entry, the tested form may be a part): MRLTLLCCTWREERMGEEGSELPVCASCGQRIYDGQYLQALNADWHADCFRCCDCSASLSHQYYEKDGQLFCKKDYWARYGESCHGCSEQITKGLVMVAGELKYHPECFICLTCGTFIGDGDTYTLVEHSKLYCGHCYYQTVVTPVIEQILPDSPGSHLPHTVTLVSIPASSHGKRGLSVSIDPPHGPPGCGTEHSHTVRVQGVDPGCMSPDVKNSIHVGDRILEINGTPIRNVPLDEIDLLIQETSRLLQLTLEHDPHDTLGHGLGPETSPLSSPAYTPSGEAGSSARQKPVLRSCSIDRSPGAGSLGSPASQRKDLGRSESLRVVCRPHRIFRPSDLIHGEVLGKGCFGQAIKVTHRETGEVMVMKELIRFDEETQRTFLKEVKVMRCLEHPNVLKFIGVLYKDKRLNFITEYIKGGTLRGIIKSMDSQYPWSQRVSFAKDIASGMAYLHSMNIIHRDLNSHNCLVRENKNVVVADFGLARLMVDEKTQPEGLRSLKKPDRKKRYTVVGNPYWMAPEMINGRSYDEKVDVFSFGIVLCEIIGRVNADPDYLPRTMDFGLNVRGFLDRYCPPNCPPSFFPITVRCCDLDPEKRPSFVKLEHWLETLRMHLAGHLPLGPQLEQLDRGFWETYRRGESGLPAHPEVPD
Assay: Inhibition of LIMK1 (unknown origin) assessed as ADP formation using cofilin-2 protein as substrate measured after 60 mins incubation with enzyme by Transcreener assay
pIC50: −log10 of the molar value.
Rule: pIC50 under 7 gives false (0), otherwise true (1).

* Cn1c2cc(-c3cccc(C(N)=O)c3)ccc2c2ncnc(N)c21 | false (0)
* Cn1c2cc(-c3ccc(NC=O)cc3)ccc2c2ncnc(N)c21 | false (0)
* Nc1ncnc2c1sc1cc(-c3cccc(NC=O)c3)ccc12 | true (1)
* Nc1ncnc2c1sc1cc(-c3cccc(C(=O)NCCO)c3)ccc12 | false (0)
* CC(C)CNC(=O)Nc1cccc(-c2ccc3c(c2)sc2c(N)ncnc23)c1 | false (0)

Ask: hey, is pIC50 for this one >= 7? CCNC(=O)Nc1ncc(-c2cc(-c3c(C)cc(OC)cc3C)nc(-c3cnccn3)n2)s1
Reply: true (1)

Ask: hey, is pIC50 for this one >= 7? CN1CCN(CCNC(=O)Nc2cccc(-c3ccc4c(c3)sc3c(N)ncnc34)c2)CC1
Reply: false (0)

Ask: hey, is pIC50 for this one >= 7? Cn1c2cc(-c3ccc(O)cc3)ccc2c2ncnc(N)c21
Reply: false (0)

Ask: hey, is pIC50 for this one >= 7? C[C@@H](NC(=O)c1cccc(-c2ccc3c(c2)sc2c(N)ncnc23)c1)C(N)=O
Reply: false (0)

Ask: hey, is pIC50 for this one >= 7? Nc1ncnc2c1sc1cc(-c3cccc(C(=O)N4CCOCC4)c3)ccc12
Reply: false (0)

----------
Assay: Solubility of the compound in 0.01 M HCl at pH 2 by nephelometry
Format: physicochemical
Known solubility kinetic of a selection of compounds

Examples from the recorded data:
* Nc1ncnc2c1sc1cc(-c3cccc(-c4nn[nH]n4)c3)ccc12 | 6.3 µg/mL
* Cn1c2cc(-c3ccccc3)ccc2c2ncnc(N)c21 | 12.5 µg/mL
* Nc1ncnc2c1sc1cc(-c3ccccc3)ccc12 | 6.3 µg/mL

Ask: Dear colleague, I am looking for the recorded solubility kinetic of the following compound: Nc1ncnc2c1sc1cc(-c3cccc(C(=O)NCCc4cccnc4)c3)ccc12
Reply: 50 µg/mL

Ask: Dear colleague, I am looking for the recorded solubility kinetic of the following compound: CCNC(=O)Nc1cccc(-c2ccc3c(c2)sc2c(N)ncnc23)c1
Reply: 12.5 µg/mL

Data provenance: ChEMBL document CHEMBL3390844
